- Experiment description: ATG_ERE_CIS: Attagene CIS-FACTORIAL HepG2 Assay for Estrogen Response Element (ERE) (AID 2282940)
- Particulars: HepG2 ERE cis-reporter, Attagene RNA transcript; actives raise or lower the signal
Activity calls are given as the source filed them. The calls were made as follows: active = hit-call score of the fitted dose curve at least 0.9, where 1 is the maximum; inactive = score below 0.9.
Select the correct class. Options are active, inactive and nothing else.

Take a look at these entries with their results.
CC(=O)C=O inactive
CCCCCCCCCCCCCC[P+](CCCC)(CCCC)CCCC inactive
CCOCN(C(=O)CS(=O)(=O)O)c1c(C)cccc1CC inactive
O=C(Cl)C(F)(F)C(F)(F)C(F)(F)C(F)(F)C(F)(F)C(F)(F)C(F)(F)F active
C=CC(=O)OCC(F)(F)C(F)(F)C(F)(F)COC(=O)C=C inactive
N#CCCOCCC#N inactive

Exercise: Just curious, what result did O=C(c1ccccc1)c1ccc(Cl)cc1 get here?
Solution: active

###

- Read-out: Monocyte Chemoattractant Protein-1 (MCP1), CCL2 (gene 6347)
- Experiment description: BSK_IMphg_MCP1: BioMAP Diversity Plus: IMphg Assay for Monocyte Chemoattractant Protein-1 (MCP1) Biomarker Activity (AID 2284253)
- Particulars: primary human endothelial cells with macrophages
Active and inactive are the calls of the source. Rule for the calls: active = hit-call score of the fitted dose curve at least 0.9, where 1 is the maximum; inactive = score below 0.9.

Compound	outcome
OCC(F)(F)C(F)(F)C(F)(F)C(F)(F)C(F)(F)C(F)(F)CO	inactive
C[Si](Cl)(Cl)CCC(F)(F)C(F)(F)C(F)(F)C(F)(F)C(F)(F)C(F)(F)F	inactive
OCC(O)CC(F)(F)C(F)(F)C(F)(F)C(F)(F)C(F)(F)C(F)(F)C(F)(F)C(F)(F)F (stereo not drawn)	inactive

###

- System: TTR (gene 7276)
- Experiment description: CCTE_GLTED_hTTR_0.5uM: CCTE's human Transthyretin (hTTR) Inhibition Assay, with 0.5uM TTR, Great Lakes Toxicology and Ecology Division (GLTED) Lab (AID 2284320)
Calls of active or inactive are those of the source. Rule for the calls: active = hit-call score of the fitted dose curve at least 0.9, where 1 is the maximum; inactive = score below 0.9.
Your reply should match one of these outcome classes. True (active), False (inactive)

O=C(O)C(F)(F)OC(F)(F)C(F)(F)OC(F)(F)C(F)(F)OC(F)(F)F True
C=CC(=O)OCCC(F)(F)C(F)(F)C(F)(F)C(F)(F)F False
O=C(O)C(F)(F)C(F)(F)C(F)(F)OC(F)(C(F)(F)F)C(F)(F)F True

Exercise: What did this assay record as the result for O=C(O)CCC(F)(F)C(F)(F)C(F)(F)C(F)(F)C(F)(F)C(F)(F)C(F)(F)F ?
Solution: True

Exercise: Dear all, I need the recorded test outcome for O=S(=O)(Cl)C(F)(F)C(F)(F)C(F)(F)C(F)(F)C(F)(F)C(F)(F)C(F)(F)C(F)(F)F , thank you.
Solution: True

Exercise: What classification did O=C(Cl)C(F)(F)C(F)(F)C(F)(F)C(F)(F)C(F)(F)C(F)(F)F end up with in this test?
Solution: True

Exercise: Field: outcome | Entry: O=C(O)C(F)(F)C(F)(F)C(F)(F)C(F)(F)C(F)(F)C(F)(F)C(F)F
Solution: True

###

- Experiment description: ATG_CRE_CIS: Attagene CIS-FACTORIAL HepG2 Assay for human cAMP Responsive Element (CRE) binding protein 3 (AID 2282926)
- Particulars: HepG2 CRE cis-reporter, Attagene multiplexed mRNA; actives raise or lower the signal
The source made the active and inactive calls. How the source made its calls: active means hit-call score of the fitted dose curve at least 0.9, where 1 is the maximum; inactive means score below 0.9.
Outcomes you can answer with include only these: active, inactive

Completed entries (count: 3):
Compound	Discrete label
N#CCCOCCC#N	inactive
NC(O)(C(F)(F)F)C(F)(F)F	inactive
CCN(CCO)S(=O)(=O)C(F)(F)C(F)(F)C(F)(F)C(F)(F)C(F)(F)C(F)(F)C(F)(F)C(F)(F)F	active

Proceed to the following item.
Exercise: Tell me the assay call for CCN(CC)c1ccc(N=Nc2ccccc2)cc1 please.
Solution: inactive

###

- Read-out: Interleukin-1 alpha (IL1a), IL1A (gene 3552)
- Experiment description: BSK_KF3CT_IL1a: BioMAP Diversity Plus: KF3CT Assay for Interleukin-1 alpha (IL1a) Biomarker Activity (AID 2283070)
- Particulars: primary human keratinocytes with fibroblasts; actives raise or lower the signal
Calls of active or inactive are those of the source. The calls were made as follows: active = hit-call score of the fitted dose curve at least 0.9, where 1 is the maximum; inactive = score below 0.9.
In this exercise, the only acceptable responses are active, inactive

OC(O)C(F)(F)C(F)(F)F inactive
CN(C(=O)C(F)(F)C(F)(F)C(F)(F)F)[Si](C)(C)C inactive
NC(O)(C(F)(F)F)C(F)(F)F inactive
NC(=O)C(F)(F)C(F)(F)C(F)(F)C(F)(F)C(N)=O inactive
O=S(=O)(O)CCC(F)(F)C(F)(F)C(F)(F)C(F)(F)F inactive

Could you now consider this next compound?
Exercise: Outcome? Cc1ccc(O)c(-n2nc3ccccc3n2)c1
Solution: inactive

###

- Experiment description: ATG_E_Box_CIS: Attagene CIS-FACTORIAL HepG2 Assay for human Enhancer Box (E-box) (AID 2282936)
- Particulars: HepG2 E-box cis-reporter transcription, actives raise or lower the signal
Activity calls are given as the source filed them. The calls were made as follows: active = hit-call score of the fitted dose curve at least 0.9, where 1 is the maximum; inactive = score below 0.9.
Permitted responses: active, inactive

Worked examples, 4 compounds total:
Compound	Discrete label
CN(N=O)C(=O)N[C@@H]1[C@@H](O)[C@H](O)[C@@H](CO)O[C@@H]1O	inactive
CCN=c1cc2oc3cc(NCC)c(C)cc3c(-c3ccccc3C(=O)OCC)c-2cc1C	active
F[Si-2](F)(F)(F)(F)F	inactive
CCN(CC)c1ccc2c(c1)Oc1cc(N(CC)CC)ccc1C21OC(=O)c2ccccc21	inactive

Exercise: Which outcome was assigned to O=C(Cl)C(F)(F)C(F)(F)C(F)(F)C(F)(F)C(F)(F)C(F)(F)F in this test?
Solution: inactive

Exercise: Write down the call the test reported for this compound. Item: O=C(O)C(F)(F)C(F)(F)C(F)(F)OC(F)(C(F)(F)F)C(F)(F)F
Solution: inactive

Exercise: What did the test return for Brc1nc2ccccc2s1 ?
Solution: active

Exercise: Record request — test call for NC(=O)C(F)(F)C(F)(F)C(F)(F)C(F)(F)C(N)=O
Solution: inactive

Exercise: Give the logged outcome of this assay for the following compound: CCCCOC(=O)[C@H](C)O
Solution: inactive

Exercise: I would be grateful if you could indicate the recorded call for CCCCCCCC/C=C\CCCCCCCC(=O)OCC(O)CO (configuration not stated) .
Solution: inactive

Exercise: Any idea what this test logged for CCOC(OCC)OCC ?
Solution: inactive

Exercise: Field: outcome | Entry: O=S(=O)(O)c1ccc(Cl)cc1
Solution: inactive

###

- Read-out: TIMP metallopeptidase inhibitor 2 (TIMP2), TIMP2 (gene 7077)
- Experiment description: BSK_KF3CT_TIMP2: BioMAP Diversity Plus: KF3CT Assay for TIMP metallopeptidase inhibitor 2 (TIMP2) Biomarker Activity (AID 2283071)
- Particulars: primary human keratinocytes with fibroblasts; actives raise or lower the signal
Activity calls are given as the source filed them. The calls were made as follows: active = hit-call score of the fitted dose curve at least 0.9, where 1 is the maximum; inactive = score below 0.9.
Metric: AC50

The cases that follow already have their AC50 on record.
CNS(=O)(=O)C(F)(F)C(F)(F)C(F)(F)C(F)(F)C(F)(F)C(F)(F)C(F)(F)C(F)(F)F inactive
OCC(F)(F)C(F)(F)C(F)(F)C(F)(F)C(F)(F)C(F)(F)CO inactive
C=CC(=O)OCC(F)(F)C(F)(F)C(F)(F)COC(=O)C=C 30 µM (active)
Brc1nc2ccccc2s1 inactive
O=C(Cl)C(F)(F)C(F)(F)C(F)(F)C(F)(F)C(F)(F)C(F)(F)F inactive
NS(=O)(=O)C(F)(F)C(F)(F)C(F)(F)C(F)(F)C(F)(F)C(F)(F)F inactive
Cc1cnccn1 inactive
NC(=O)C(F)(F)C(F)(F)C(F)(F)C(F)F inactive
CCOC(C=C(C)CCC=C(C)C)OCC 31.2 µM (active)
CCN(CC)c1ccc(C=O)c(O)c1 inactive

// each compound listed below needs its AC50
1. O=C(O)CCC(F)(F)C(F)(F)C(F)(F)F
2. CCN(CCO)S(=O)(=O)C(F)(F)C(F)(F)C(F)(F)C(F)(F)C(F)(F)C(F)(F)C(F)(F)C(F)(F)F

Solution:
["inactive", "inactive"]

###

- Read-out: Vascular endothelial growth factor receptor 2 (Homo sapiens) (UniProt P35968)
- Experiment description: BSK_4H_VEGFRII: BioMAP Diversity Plus: 4H Assay for Vascular endothelial growth factor receptor 2 (VEGFR2) Biomarker Activity (AID 2283031)
- Particulars: primary human endothelial cells (HUVEC); actives raise or lower the signal
Activity calls are given as the source filed them. The calls were made as follows: active = hit-call score of the fitted dose curve at least 0.9, where 1 is the maximum; inactive = score below 0.9.
Return exactly one item of t = active, f = inactive

These recorded examples may help you get a feel for the data.
Compound	Discrete label
C=C(C)C(=O)OCC(F)(F)C(F)(F)C(F)(F)C(F)F	f
C[C@]12CC[C@H]3C(=CCc4cc(O)ccc43)[C@@H]1CCC2=O	f

Exercise: Can you look up the reported call for Cc1ccc(S(=O)(=O)C(I)I)cc1 for me?
Solution: t

###

- Read-out: Interleukin-6 (IL6), IL6 (gene 3569)
- Experiment description: BSK_CASM3C_IL6: BioMAP Diversity Plus: CASM3C Assay for Interleukin-6 (IL6) Biomarker Activity for (AID 2283040)
- Particulars: primary human coronary artery smooth muscle cells; actives raise or lower the signal
The source made the active and inactive calls. The calls were made as follows: active = hit-call score of the fitted dose curve at least 0.9, where 1 is the maximum; inactive = score below 0.9.

Compound	outcome
CC1=CC2C3C=CC(C3)C2C1C (stereo not drawn)	inactive
C[C@]12CC[C@H]3C(=CCc4cc(O)ccc43)[C@@H]1CCC2=O	inactive
O=C=Nc1cccc2c(N=C=O)cccc12	inactive

Sourced from PubChem BioAssay (EPA / NIEHS)
